Origin of values: patent US20220281848A1

test system: plants; test: Test D post-emergence, other plants of Tables D2 and D4; format: in vivo; settings: post-emergence, ECHCG, rate 500, evaluated after 15 d
measurementType: damage to plant (100=total damage to plant; 0=no damage to plant), ECHCG
Form: value (number only, do not type unit).

Some entries whose results are on file:
{"columns": ["molecule", "valueReported"],
 "data": [
  ["CN1CC(c2cc(C(F)(F)F)n(C)n2)C(C(=O)Nc2ccc(F)c(F)c2F)C1=O (racemic)", 80],
  ["CCn1nc([C@H]2CN(C)C(=O)[C@@H]2C(=O)Nc2cccc(F)c2F)c2cc(F)ccc21", 80],
  ["COc1c(F)cccc1NC(=O)C1C(=O)N(C)CC1c1cc(C(F)(F)F)n(C)n1 (racemic)", 70]
]}

Lab note: next molecule to report on.
# return recorded damage to plant (100=total damage to plant; 0=no damage to plant), ECHCG for entry CCn1nc([C@H]2CN(C)C(=O)[C@@H]2C(=O)Nc2cccc(F)c2F)c2c(F)cccc21
70

====

tested on: plants; assay: Test D post-emergence, other plants of Tables D2 and D4; assay type: in vivo; settings: VERPE; "Cereals" Postemergent; Rates 130; evaluated after 15 d
measurementType: VERPE damage rating (100=total damage to plant; 0=no damage to plant)

As a guide, the following entries are already answered.
{"columns": ["molecule", "valueReported"],
 "data": [
  ["CN1CC(c2cc(C(F)(F)F)n(C)n2)C(C(=O)Nc2cccc(F)n2)C1=O (racemic)", 0],
  ["CCn1nc([C@@H]2CN(C)C(=O)[C@H]2C(=O)Nc2cccc(F)c2F)c2cccc(F)c21", 50],
  ["CN1CC(c2cc(C(F)(F)F)n(C)n2)C(C(=O)Nc2ccc(F)c(F)c2F)C1=O (racemic)", 30]
]}

Now, please, on to the next molecule.
Please indicate recorded VERPE damage rating (100=total damage to plant; 0=no damage to plant) of CN1CC(c2cc(C(F)(F)F)n(C)n2)C(C(=O)Nc2ccc(F)nc2F)C1=O (racemic) measured with plants.
0

====

test system: redroot pigweed (Amaranthus retroflexus, AMARE); assay: Test A pre-emergence, redroot pigweed; format: in vivo; conditions: Pre-Emergence at 62.5 g/ha; after 13 d
measurementType: damage to plant (100=total damage; 0=no damage) AMARE

Solved entries:
{"columns": ["compound", "valueReported"],
 "data": [
  ["CN1CC(c2cc(C(F)(F)F)n(C)n2)C(C(=O)Nc2cccc(F)c2F)C1=O (racemic)", 20],
  ["CN1CC(c2nn(C)c(Cl)c2Br)C(C(=O)Nc2ccc(F)cc2F)C1=O (racemic)", 0],
  ["CCn1nc(C2CN(C)C(=O)C2C(=O)Nc2cccc(F)c2F)c2cccc(F)c21 (stereo not shown)", 0]
]}

Please respond with reported damage to plant (100=total damage; 0=no damage) AMARE (system redroot pigweed (Amaranthus retroflexus, AMARE)) for CCn1nc([C@H]2CN(C)C(=O)[C@@H]2C(=O)Nc2cccc(F)c2F)c2c(F)cccc21 .
0

====

tested on: redroot pigweed (Amaranthus retroflexus, AMARE); test: Test A pre-emergence, redroot pigweed; format: in vivo; conditions: Pre-Emergence at 250 g/ha; after 13 d
measurementType: damage to plant (100=total damage; 0=no damage) AMARE
Form rule: numeric answer, no unit written next to it.

{"columns": ["compound", "valueReported"],
 "data": [
  ["CCn1nc([C@H]2CN(C)C(=O)[C@@H]2C(=O)Nc2cccc(F)c2F)c2ccc(F)cc21", 40],
  ["CN1CC(c2cc(C(F)(F)F)n(C)n2)C(C(=O)Nc2ccc(F)cc2C(C)(F)F)C1=O (racemic)", 0],
  ["CCn1nc([C@H]2CN(C)C(=O)[C@@H]2C(=O)Nc2cccc(F)c2F)c2cc(F)ccc21", 0],
  ["CN1CC(c2cc(C(F)(F)F)n(C)n2)C(C(=O)Nc2cccc(F)c2OC(F)(F)F)C1=O (racemic)", 0],
  ["CN1CC(c2cc(C(F)(F)F)n(C)n2)C(C(=O)Nc2cccc(F)c2F)C1=O (racemic)", 70]
]}

Tell me measured damage to plant (100=total damage; 0=no damage) AMARE for CCn1nc([C@H]2CN(C)C(=O)[C@@H]2C(=O)Nc2cccc(F)c2F)c2c(F)cccc21 please.
0

Give the reported damage to plant (100=total damage; 0=no damage) AMARE for this compound. CCn1nc(C2CN(C)C(=O)C2C(=O)Nc2cccc(F)c2F)c2cccc(F)c21 (stereo not drawn) [Compound 15]
0

====

Item-by-item account of damage to plant (100=total damage; 0=no damage) ZEAMX
tested on: corn (Zea mays, ZEAMX); experiment: Test A pre-emergence, corn; format: in vivo; conditions: Pre-Emergence at 62.5 g/ha; after 13 d
I'd appreciate a reply containing only the number, no unit.

Past entries and their recorded results:
{"columns": ["molecule", "valueReported"],
 "data": [
  ["CN1CC(c2nn(C)c(Cl)c2Br)C(C(=O)Nc2ccc(F)cc2F)C1=O (racemic) [Compound 30]", 0],
  ["CCn1nc([C@H]2CN(C)C(=O)[C@@H]2C(=O)Nc2ccc(F)nc2F)c2cccc(F)c21 [Compound 11]", 0],
  ["CN1CC(c2cc(Cl)n(C)n2)C(C(=O)Nc2ccc(F)cc2F)C1=O (racemic) [Compound 29]", 10],
  ["CN1CC(c2cc(C(F)(F)F)n(C)n2)C(C(=O)Nc2ccc(F)cc2F)C1=O (racemic) [Compound 6]", 20],
  ["CN1CC(c2cc(C(F)(F)F)n(C)n2)C(C(=O)Nc2ccc(F)c(F)c2F)C1=O (racemic) [Compound 17]", 70]
]}

Moving on to another molecule below.
Note damage to plant (100=total damage; 0=no damage) ZEAMX for the molecule shown: CN1CC(c2cc(C(F)(F)F)n(C)n2)C(C(=O)Nc2ccc(F)nc2F)C1=O (racemic) [Compound 22]
20

====

system: plants; assay: Test D post-emergence, other plants of Tables D2 and D4; assay type: in vivo; conditions: post-emergence, EPHHL, rate 500, evaluated after 15 d
measurementType: damage to plant (100=total damage to plant; 0=no damage to plant), EPHHL
Form: value (number only, do not type unit).

Entry CN1CC(c2cc(C(F)(F)F)n(C)n2)C(C(=O)Nc2ccc(F)nc2F)C1=O (racemic) needs its damage to plant (100=total damage to plant; 0=no damage to plant), EPHHL filled in; supply it.
30

Give damage to plant (100=total damage to plant; 0=no damage to plant), EPHHL for COc1c(F)cccc1NC(=O)C1C(=O)N(C)CC1c1cc(C(F)(F)F)n(C)n1 (racemic)
20

Tell me its damage to plant (100=total damage to plant; 0=no damage to plant), EPHHL given CN1CC(c2cc(C(F)(F)F)n(C)n2)C(C(=O)Nc2ccc(F)c(F)c2F)C1=O (racemic) as the entry.
30

Supply damage to plant (100=total damage to plant; 0=no damage to plant), EPHHL value. Item: CCn1nc([C@H]2CN(C)C(=O)[C@@H]2C(=O)Nc2cccc(F)c2F)c2c(F)cccc21
40

====

Recorded damage to plant (100=total damage to plant; 0=no damage to plant), ECHCG values for a group of molecules are listed next.
tested on: plants; experiment: Test D pre-emergence, other plants of Tables D1 and D3; assay type: in vivo; conditions: ECHCG; preemergent; rate 500; 20 DAA
Give the value as a plain number.

Solved cases (3 shown):
{"columns": ["molecule", "valueReported"],
 "data": [
  ["CCn1nc([C@@H]2CN(C)C(=O)[C@H]2C(=O)Nc2cccc(F)c2F)c2cccc(F)c21", 90],
  ["CN1CC(c2cc(C(F)(F)F)n(C)n2)C(C(=O)Nc2ccc(F)nc2F)C1=O (racemic)", 100],
  ["CN1CC(c2cc(C(F)(F)F)n(C)n2)C(C(=O)Nc2cccc(F)c2F)C1=O (racemic)", 100]
]}

Please look at CCn1nc([C@H]2CN(C)C(=O)[C@@H]2C(=O)Nc2cccc(F)c2F)c2cc(F)ccc21 and tell me its recorded damage to plant (100=total damage to plant; 0=no damage to plant), ECHCG on plants.
100

// output damage to plant (100=total damage to plant; 0=no damage to plant), ECHCG; input CCn1nc([C@H]2CN(C)C(=O)[C@@H]2C(=O)Nc2cccc(F)c2F)c2c(F)cccc21 ; system plants
100

====

Entries and their damage to plant (100=total damage to plant; 0=no damage to plant), CYPES values follow.
test system: plants; test: Test D post-emergence, other plants of Tables D2 and D4; assay type: in vivo; settings: post-emergence, CYPES, rate 500, evaluated after 15 d
Reply with just the number.

Some compounds with recorded damage to plant (100=total damage to plant; 0=no damage to plant), CYPES:
{"columns": ["compound", "valueReported"],
 "data": [
  ["CN1CC(c2cc(C(F)(F)F)n(C)n2)C(C(=O)Nc2ccc(F)c(F)c2F)C1=O (racemic)", 10],
  ["CN1C[C@H](c2nn(C)c3c(F)cccc23)[C@@H](C(=O)Nc2cccc(F)c2F)C1=O", 0],
  ["COc1c(F)cccc1NC(=O)C1C(=O)N(C)CC1c1cc(C(F)(F)F)n(C)n1 (racemic)", 0]
]}

Could you now consider this next compound?
Give the value of damage to plant (100=total damage to plant; 0=no damage to plant), CYPES reported for the following: CN1CC(c2cc(C(F)(F)F)n(C)n2)C(C(=O)Nc2cccc(F)c2C(F)(F)F)C1=O (racemic)
0
